// data source = patent US20080026996A1

Each entry below lists one item and its recorded VPAC2 cAMP max value.
Measurement Target: rat VPAC2 receptor (Rattus norvegicus)
Sequence (P35000 23-437): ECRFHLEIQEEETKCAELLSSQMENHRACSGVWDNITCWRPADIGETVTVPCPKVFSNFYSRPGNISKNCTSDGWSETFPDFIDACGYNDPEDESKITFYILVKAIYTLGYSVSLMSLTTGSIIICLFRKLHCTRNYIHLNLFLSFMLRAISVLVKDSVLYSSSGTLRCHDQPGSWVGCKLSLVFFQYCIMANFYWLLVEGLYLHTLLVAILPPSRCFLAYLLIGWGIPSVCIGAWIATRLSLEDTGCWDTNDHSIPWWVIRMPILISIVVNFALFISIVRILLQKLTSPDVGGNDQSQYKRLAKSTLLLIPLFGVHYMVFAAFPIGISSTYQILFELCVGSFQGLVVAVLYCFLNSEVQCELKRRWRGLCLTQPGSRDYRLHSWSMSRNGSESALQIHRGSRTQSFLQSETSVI
Assay Procedure: Adenylate cyclase activation on membrane preparations expressing rat VPAC2 receptor
Format: biochemical
Design: expressed in transfected cells; host or cells: CHO cells, crude membranes
Protocol Conditions: maximal increase in cyclic AMP production (over basal) per minute and per mg protein
Where no end group is shown, it is not given here. [ ]: non-standard residue; d: D form. The star is where a group is joined. Hexanoyl = CCCCCC(=O)*; Aib = CC(C)(N)C(=O)O
Metric: VPAC2 cAMP max

• Hexanoyl-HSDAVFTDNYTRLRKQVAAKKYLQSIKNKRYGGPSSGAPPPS [Agonist P31] = 134
• H-MHSDAVFTDNYTRLRKQVAAKKYLQSIKNKRYGGPSSGAPPPS [Agonist P104] = 129
• Hexanoyl-HSDAVFTDNYTRLR[Aib]QVAA[Aib]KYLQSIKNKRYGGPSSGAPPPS [Agonist P261] = 78.5
• Hexanoyl-HSDAVFTDNYTRLLAKLALQKYLQSIKNKRYGGPSSGAPPPS [Agonist P119] = 133
